# Experimental Details: Clearance in rat
# Format: ADME, organism-based
# Experimental Setup: in vivo

Smiles Code: N#Cc1cnc2c(Cl)cc(NCc3cn(Cc4ccncc4)nn3)cc2c1Nc1ccc(F)c(Cl)c1
clearance [mL/min/kg]: 88
--
Smiles Code: N#Cc1cnc2c(Cl)cc(NCc3cn(-c4ccncc4)nn3)cc2c1Nc1ccc(F)c(Cl)c1
clearance [mL/min/kg]: 28

----------
# Experimental Details: Membrane permeability by PAMPA assay
# Assay type: ADME
# Experimental Setup: read-out: permeability
The threshold is inclusive: Papp of exactly 0.1 ×10⁻⁶ cm/s counts as true (1); values below receive false (0).

Compound: N#Cc1cnc2c(Cl)cc(NCc3cn(CCC4CCCN4)nn3)cc2c1Nc1ccc(F)c(Cl)c1 (centres undefined)
Class Name: true (1)
--
Compound: N#Cc1cnc2c(Br)cc(NCc3cn(-c4ccccc4)nn3)cc2c1Nc1ccc(F)c(Cl)c1
Class Name: true (1)
--
Compound: N#Cc1cnc2c(Cl)cc(NCc3cn(Cc4cccnc4)nn3)cc2c1Nc1ccc(F)c(Cl)c1
Class Name: true (1)
--
Compound: N#Cc1cnc2c(Cl)cc(NCc3cn(C4CCN(C5CCC5)CC4)nn3)cc2c1Nc1ccc(F)c(Cl)c1
Class Name: true (1)
--
Compound: N#Cc1cnc2c(Cl)cc(NCc3cn(C4CCNCC4)nn3)cc2c1Nc1ccc(F)c(Cl)c1
Class Name: false (0)
--
Compound: N#Cc1cnc2c(Br)cc(NCc3cn(Cc4cccnc4)nn3)cc2c1Nc1ccc(F)c(Cl)c1
Class Name: true (1)
--
Compound: N#Cc1cnc2c(Cl)cc(NCc3cn(CC(=O)O)nn3)cc2c1Nc1ccc(F)c(Cl)c1
Class Name: false (0)
--
Compound: N#Cc1cnc2c(Br)cc(NCc3cn(CCC4CCCN4)nn3)cc2c1Nc1ccc(F)c(Cl)c1 (centres undefined)
Class Name: true (1)

----------
# Experimental Details: Cmax in rat at 100 mg/kg, po
# Format: ADME, organism-based
# Set-up: dose 100 mg/kg, route oral
# Experimental Setup: in vivo

Smiles Code: CCN1CCC(n2cc(CNc3cc(Cl)c4ncc(C#N)c(Nc5ccc(F)c(Cl)c5)c4c3)nn2)CC1
Cmax [ng/mL]: 517

----------
Below is a list of entries, each paired with its recorded Papp value.
# Experimental Details: Membrane permeability by PAMPA assay
# Type: ADME
# Experimental Setup: read-out: permeability
Endpoint Name: Papp (×10⁻⁶ cm/s)

Smiles Code: CCCN1CCC(n2cc(CNc3cc(Cl)c4ncc(C#N)c(Nc5ccc(F)c(Cl)c5)c4c3)nn2)CC1
Result: 0.48
--
Smiles Code: N#Cc1cnc2c(Br)cc(NCc3cn(CC(=O)O)nn3)cc2c1Nc1ccc(F)c(Cl)c1
Result: 1.8
--
Smiles Code: CCN1CCC(n2cc(CNc3cc(Cl)c4ncc(C#N)c(Nc5ccc(F)c(Cl)c5)c4c3)nn2)CC1
Result: 0.36
--
Smiles Code: CN1CCC(n2cc(CNc3cc(Cl)c4ncc(C#N)c(Nc5ccc(F)c(Cl)c5)c4c3)nn2)CC1
Result: 0.39
